protocol-description: in vivo
measurement-parameters: female, Gottingen, minipig, in vivo, sc, 0.4 ug/kg, t1/2
measured-parameter: half-life (h)
Write the answer as a number in h, unit excluded.

Recorded result, OCc1cc(C(O)CNCCCCCCOCCCCc2ccccc2)ccc1O (racemic) , half-life: 2.88

* * *

protocol-description: Plasma pharmacokinetics following a single intravenous and subcutaneous injection of a combination of formoterol and budesonide
measurement-parameters: male, Gottingen, minipig, in vivo, iv, Plasma concentration of formoterol, IV 0.4 μg/kg, combination, male 1-0771, 0.750 hr
measured-parameter: concentration at 0.75 hr (ng/mL)
Answer format: numeric, ng/mL implied, no suffix.

get_value(item= COc1ccc(CC(C)NCC(O)c2ccc(O)c(NC=O)c2)cc1 (stereo not shown) , readout=concentration at 0.75 hr) returns 0.0488
